system under test: Serine/threonine-protein kinase PLK1 (Homo sapiens)
experiment summary: qHTS for Inhibitors of PLK1-PDB (polo-like kinase 1 - polo-box domain): Primary Screen; also: series mostly up to about 57 µM; % is scaled to controls: 0 for no effect and ±100 for the full control effect; nearly all actives have a fitted effect of over 65% in size
details: Plk1 PBD binding of FITC phosphopeptide, fluorescence polarization
In all, about 360,000 compounds went through this assay and about 10,000 (2.8%) were called active. Another 4% or so got no clear call; they are omitted. The list comes from a sample in which actives are over-represented; it also holds close analogues and randomly drawn compounds.
# max response, negative = inhibition annotations
Response body: numeric value in %, unit text excluded.

Some solved cases for reference:
Cc1ccc(OC(=O)CCC(=O)Nc2ccc(Br)cc2)cc1; -3.3
Cc1ccc(S(=O)(=O)N2CC3C(=O)C[C@@H](c4ccccc4Cl)N(S(=O)(=O)c4ccc(C)cc4)C3CC2c2ccccc2)cc1 (stereo partly specified); 1.78
O=C(NC1CCCC1)C1c2ccccc2OCC(=O)N1Cc1ccccc1 (stereo unspecified); -5.56
CNC(=S)Nc1ccc([N+](=O)[O-])cc1; -17.5

Continue with the compound presented below.
[Q] Please report the recorded max response, negative = inhibition for "CCN(C(=O)COC(=O)c1sccc1C)c1c(N)n(Cc2ccccc2)c(=O)[nH]c1=O" .
[A] -3.78
